- System: primary mouse cortical neurons
- Construct: primary cortical neurons, DIV 10
- assay: cells
- Set-up: Protection from NMDA-induced (30 uM, 10 min) neuronal death; Hoechst nuclear morphology by automated microscopy
- measurement-conditions: Cortical neurone, 20 h, read-out: % inhibition, inhibition of NMDA-induced cell death (protection score), 30 min pre-treatment
Where a name gives a salt, the structure may show the parent alone.
Measured inhibition at 10 µM of individual entries

[
  {
    "compound": "CN(C)/N=N/c1nc[nH]c1C(N)=O",
    "inhibition at 10 µM / %": -1.39
  },
  {
    "compound": "CC(=O)NC[C@H]1CN(c2ccc(N3CCOCC3)c(F)c2)C(=O)O1 [Linezolid (Zyvox)]",
    "inhibition at 10 µM / %": 37
  },
  {
    "compound": "C[C@@H](NCCCc1cccc(C(F)(F)F)c1)c1cccc2ccccc12 [AMG-073 HCl (Cinacalcet hydrochloride)]",
    "inhibition at 10 µM / %": -14.8
  },
  {
    "compound": "CCCC(=O)O [Sodium butyrate]",
    "inhibition at 10 µM / %": 0.412
  },
  {
    "compound": "CN(C)C(=N)NC(=N)N [Metformin hydrochloride (Glucophage)]",
    "inhibition at 10 µM / %": 10.2
  },
  {
    "compound": "O=P(O)(O)C(O)(Cn1ccnc1)P(=O)(O)O [Zoledronic Acid (Zoledronate)]",
    "inhibition at 10 µM / %": -0.211
  },
  {
    "compound": "COc1c2occc2cc2ccc(=O)oc12",
    "inhibition at 10 µM / %": -4.76
  },
  {
    "compound": "CC(C(=O)O)c1ccc(-c2ccccc2)c(F)c1 (stereo not shown)",
    "inhibition at 10 µM / %": 14
  },
  {
    "compound": "C=C1C(=O)O[C@H]2[C@H]1CC/C(C)=C/CC[C@@]1(C)O[C@@H]21 [Parthenolide ((-)-Parthenolide)]",
    "inhibition at 10 µM / %": -3.83
  },
  {
    "compound": "N[C@@H](Cc1ccc(O)c(O)c1)C(=O)O [Levodopa (Sinemet)]",
    "inhibition at 10 µM / %": 0.209
  },
  {
    "compound": "CCC[C@H](N[C@@H](C)C(=O)N1[C@H](C(=O)O)C[C@@H]2CCCC[C@@H]21)C(=O)OCC",
    "inhibition at 10 µM / %": -1.31
  },
  {
    "compound": "O=C(NCCO[N+](=O)[O-])c1cccnc1",
    "inhibition at 10 µM / %": 51
  },
  {
    "compound": "CCC1=C[C@@H]2CN(C1)Cc1c([nH]c3ccccc13)[C@@](C(=O)OC)(c1cc3c(cc1OC)N(C)[C@H]1[C@@](O)(C(=O)OC)[C@H](OC(C)=O)[C@]4(CC)C=CCN5CC[C@]31[C@@H]54)C2",
    "inhibition at 10 µM / %": -1.98
  },
  {
    "compound": "Cc1cccc(C)c1OCC(=O)N[C@@H](Cc1ccccc1)[C@@H](O)C[C@H](Cc1ccccc1)NC(=O)[C@H](C(C)C)N1CCCNC1=O",
    "inhibition at 10 µM / %": 1.09
  },
  {
    "compound": "COc1cc(O)c2c(c1)C(=O)c1cc(C)cc(O)c1C2=O",
    "inhibition at 10 µM / %": 18.7
  },
  {
    "compound": "CN(C)CCc1c[nH]c2ccc(Cn3cncn3)cc12 [Rizatriptan Benzoate (Maxalt)]",
    "inhibition at 10 µM / %": 14.3
  },
  {
    "compound": "O=C1Nc2ccccc2/C1=C1/Nc2ccccc2C1=O",
    "inhibition at 10 µM / %": 8.04
  },
  {
    "compound": "Nc1ccn([C@@H]2O[C@H](CO)[C@@H](O)C2(F)F)c(=O)n1 [Gemcitabine HCl (Gemzar)]",
    "inhibition at 10 µM / %": -9.76
  },
  {
    "compound": "C=C[C@](C)(O)CC[C@@H]1[C@@]2(C)CCCC(C)(C)[C@@H]2CC[C@@]1(C)O",
    "inhibition at 10 µM / %": 23.8
  },
  {
    "compound": "CS(=O)(=O)CCNCc1ccc(-c2ccc3ncnc(Nc4ccc(OCc5cccc(F)c5)c(Cl)c4)c3c2)o1 [Lapatinib Ditosylate (Tykerb)]",
    "inhibition at 10 µM / %": 4.76
  },
  {
    "compound": "COCCOC(=O)C1=C(C)NC(C)=C(C(=O)OC/C=C/c2ccccc2)C1c1cccc([N+](=O)[O-])c1 (stereo not shown)",
    "inhibition at 10 µM / %": -16
  },
  {
    "compound": "COc1c(C)c2c(c(O)c1C/C=C(\\C)CCC(=O)O)C(=O)OC2 [Mycophenolic (Mycophenolate)]",
    "inhibition at 10 µM / %": -10.2
  },
  {
    "compound": "CC(C)n1c(/C=C/[C@H](O)C[C@H](O)CC(=O)O)c(-c2ccc(F)cc2)c2ccccc21 (racemic) [Fluvastatin sodium (Lescol)]",
    "inhibition at 10 µM / %": -2.48
  },
  {
    "compound": "Nc1ccn([C@@H]2O[C@H](CO)[C@@H](O)[C@@H]2O)c(=O)n1",
    "inhibition at 10 µM / %": 38.3
  },
  {
    "compound": "CCOC(=O)[C@H](CCc1ccccc1)N[C@@H](C)C(=O)N1CCC[C@H]1C(=O)O [Enalapril maleate (Vasotec)]",
    "inhibition at 10 µM / %": 54.5
  },
  {
    "compound": "CC[C@@H]([C@H](C)O)n1ncn(-c2ccc(N3CCN(c4ccc(OC[C@@H]5CO[C@@](Cn6cncn6)(c6ccc(F)cc6F)C5)cc4)CC3)cc2)c1=O",
    "inhibition at 10 µM / %": -12.5
  },
  {
    "compound": "Cc1cc(O)c2c(c1)C(=O)c1cccc(O)c1C2=O",
    "inhibition at 10 µM / %": 8.58
  },
  {
    "compound": "CCCC[N+]1(C)[C@@H]2CC(OC(=O)[C@H](CO)c3ccccc3)C[C@H]1[C@@H]1O[C@@H]12 (stereo partly shown)",
    "inhibition at 10 µM / %": 5
  },
  {
    "compound": "CN1CCN(c2c(F)cc3c(=O)c(C(=O)O)cn(CCF)c3c2F)CC1",
    "inhibition at 10 µM / %": -8.01
  },
  {
    "compound": "CC(C(=O)O)c1cccc(C(=O)c2ccccc2)c1 (stereo not shown)",
    "inhibition at 10 µM / %": 30.2
  },
  {
    "compound": "O=c1[nH]c(=O)n([C@H]2C[C@H](O)[C@@H](CO)O2)cc1F",
    "inhibition at 10 µM / %": -8.07
  }
]
